The reported measurements were obtained from patent US20250376461A1.

# subjectOfTest: mouse TRPM3α2 (mTRPM3) ion channel (Mus musculus)
# Sequence (J9SQF3 1-1709 isoform J9SQF3-12): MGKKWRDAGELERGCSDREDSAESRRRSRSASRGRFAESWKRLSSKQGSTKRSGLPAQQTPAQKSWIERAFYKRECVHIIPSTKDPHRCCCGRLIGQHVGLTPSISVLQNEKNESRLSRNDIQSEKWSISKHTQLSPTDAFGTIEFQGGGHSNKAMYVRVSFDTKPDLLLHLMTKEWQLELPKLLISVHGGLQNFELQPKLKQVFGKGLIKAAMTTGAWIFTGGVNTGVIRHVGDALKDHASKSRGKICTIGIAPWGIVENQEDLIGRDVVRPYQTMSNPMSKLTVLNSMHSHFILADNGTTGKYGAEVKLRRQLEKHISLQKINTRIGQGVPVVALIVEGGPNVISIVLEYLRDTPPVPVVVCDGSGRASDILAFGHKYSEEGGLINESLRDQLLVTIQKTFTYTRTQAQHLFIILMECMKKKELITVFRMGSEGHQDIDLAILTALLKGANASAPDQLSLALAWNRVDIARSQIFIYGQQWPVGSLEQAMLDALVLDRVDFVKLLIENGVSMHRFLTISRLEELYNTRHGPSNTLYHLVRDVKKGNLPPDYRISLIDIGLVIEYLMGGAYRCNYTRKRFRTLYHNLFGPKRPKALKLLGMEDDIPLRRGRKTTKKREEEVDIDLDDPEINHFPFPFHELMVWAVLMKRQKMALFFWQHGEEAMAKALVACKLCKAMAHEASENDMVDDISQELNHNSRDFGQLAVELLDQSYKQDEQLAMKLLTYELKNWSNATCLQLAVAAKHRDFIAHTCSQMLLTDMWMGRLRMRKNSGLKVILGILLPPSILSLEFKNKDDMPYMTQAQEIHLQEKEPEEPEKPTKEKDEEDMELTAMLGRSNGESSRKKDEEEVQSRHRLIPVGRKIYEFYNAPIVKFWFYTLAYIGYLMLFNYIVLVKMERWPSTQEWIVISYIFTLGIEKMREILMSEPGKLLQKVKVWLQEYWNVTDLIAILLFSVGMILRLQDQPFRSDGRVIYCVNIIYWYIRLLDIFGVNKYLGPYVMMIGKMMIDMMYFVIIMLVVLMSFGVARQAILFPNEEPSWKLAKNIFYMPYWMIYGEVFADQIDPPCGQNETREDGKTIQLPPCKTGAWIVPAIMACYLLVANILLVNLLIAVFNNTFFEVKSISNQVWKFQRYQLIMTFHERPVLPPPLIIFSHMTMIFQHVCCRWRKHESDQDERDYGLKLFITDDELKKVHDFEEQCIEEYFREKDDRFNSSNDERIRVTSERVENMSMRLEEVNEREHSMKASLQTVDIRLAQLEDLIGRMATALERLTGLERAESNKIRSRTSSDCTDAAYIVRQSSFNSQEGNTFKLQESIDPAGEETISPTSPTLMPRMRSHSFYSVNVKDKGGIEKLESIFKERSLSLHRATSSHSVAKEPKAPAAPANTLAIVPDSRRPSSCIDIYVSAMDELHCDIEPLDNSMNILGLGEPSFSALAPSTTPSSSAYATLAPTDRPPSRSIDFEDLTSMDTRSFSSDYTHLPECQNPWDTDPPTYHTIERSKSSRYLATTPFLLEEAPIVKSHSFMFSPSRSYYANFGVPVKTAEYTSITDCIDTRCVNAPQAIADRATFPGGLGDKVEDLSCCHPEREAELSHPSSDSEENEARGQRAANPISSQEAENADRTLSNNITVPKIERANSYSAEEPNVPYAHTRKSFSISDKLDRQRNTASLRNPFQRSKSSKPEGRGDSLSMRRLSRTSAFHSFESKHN
# protocolNotes: TRPM3 ion channel driven Ca2+ uptake, Fluo-4 AM assay, mTRPM3alpha2 overexpressing flip-in HEK293 cells stimulated with pregnenolone sulfate (50 μM)
# measurementParameters: mTRPM3 overexpressing HEK293 cells stimulated with pregnenolone sulfate (50 μM), activity ranges A, B, C
IC50 values by entry

molecule: Cn1nc2ccc(OCc3cccnc3C(F)(F)F)cc2c1C(=O)NC1CCNCC1(F)F (single isomer, unassigned) [Cpd 003 - En1]
result: < 1 µM
//
molecule: Cc1ncsc1COc1ccc2nn(C)c(C(=O)NC(C)(CO)C(=O)N(C)C)c2c1 (single isomer, unassigned) [Cpd 184 - En2]
result: 1 to 20 µM
//
molecule: Cc1ncc(COc2ccc3nn(C(C)C)c(C(=O)NC(C)(CO)C(N)=O)c3c2)s1 (single isomer, unassigned) [Cpd 195 - En1]
result: > 20 µM
//
molecule: Cc1ccc(COc2ccc3nn(C)c(C(=O)NC4(CO)CCNC4=O)c3c2)cn1 (single isomer, unassigned) [Cpd 169 - En1]
result: > 20 µM
//
molecule: Cc1ccc(COc2ccc3nn(C)c(C(=O)NC4(C(N)=O)CCOC4)c3c2)cn1 (single isomer, unassigned) [Cpd 164 - En1]
result: 1 to 20 µM
//
molecule: Cn1nc2ccc(OCC3(C#N)CC3)cc2c1C(=O)NC(C)(CO)CO
result: > 20 µM

Moving on to another molecule below.
So the reported IC50 for Cn1nccc1COc1ccc2nn(C)c(C(=O)NC3CCN(CC(F)(F)F)C3)c2c1 (stereo not shown) , on mouse TRPM3α2 (mTRPM3) ion channel (Mus musculus), turned out to be 1 to 20 µM

---

pIC50 values by entry
# subjectOfTest: UniProt:J9SQF3
# protocolNotes: TRPM3 ion channel driven Ca2+ uptake, Fluo-4 AM assay, mTRPM3alpha2 overexpressing flip-in HEK293 cells stimulated with pregnenolone sulfate (50 μM)
# measurementParameters: mTRPM3 overexpressing HEK293 cells stimulated with pregnenolone sulfate (50 μM), activity ranges A, B, C
pIC50: −log10 of the molar value.

Answered cases to consult:
molecule: Cc1ncsc1COc1ccc2nn(C)c(C(=O)NC3CCNCC3(F)F)c2c1 (single isomer, unassigned) [Cpd 132 - En1]
result: 4.70 to 6.00
--
molecule: Cc1ncsc1COc1ccc2nn(C)c(C(=O)NC3(CO)CCNC3=O)c2c1 (single isomer, unassigned) [Cpd 163 - En1]
result: > 6.00
--
molecule: CN1CC(NC(=O)c2c3cc(OCc4cccnc4C(F)(F)F)ccc3nn2C)C(F)(F)C1 (centres unmarked)
result: 4.70 to 6.00
--
molecule: COCC(C)(CO)NC(=O)c1c2cc(OCc3ccccn3)ccc2nn1C (single isomer, unassigned) [Cpd 258 - En1]
result: 4.70 to 6.00

Form field pIC50, entry Cc1ccc(COc2ccc3nn(C)c(C(=O)NC(C)(CO)C(N)=O)c3c2)cn1 (single isomer, unassigned) [Cpd 174 - En2] : > 6.00

Form field pIC50, entry Cn1nc2ccc(OCc3ccccn3)cc2c1C(=O)NC(CO)(CCF)C(N)=O (centres unmarked) : > 6.00

Form field pIC50, entry Cn1ccc(NC(=O)c2c3cc(OCc4cccnc4C(F)(F)F)ccc3nn2C)n1 : 4.70 to 6.00
